study_target: purified recombinant human JAK2 protein (Homo sapiens (Human), UniProt O60674)
Sequence (O60674 whole entry): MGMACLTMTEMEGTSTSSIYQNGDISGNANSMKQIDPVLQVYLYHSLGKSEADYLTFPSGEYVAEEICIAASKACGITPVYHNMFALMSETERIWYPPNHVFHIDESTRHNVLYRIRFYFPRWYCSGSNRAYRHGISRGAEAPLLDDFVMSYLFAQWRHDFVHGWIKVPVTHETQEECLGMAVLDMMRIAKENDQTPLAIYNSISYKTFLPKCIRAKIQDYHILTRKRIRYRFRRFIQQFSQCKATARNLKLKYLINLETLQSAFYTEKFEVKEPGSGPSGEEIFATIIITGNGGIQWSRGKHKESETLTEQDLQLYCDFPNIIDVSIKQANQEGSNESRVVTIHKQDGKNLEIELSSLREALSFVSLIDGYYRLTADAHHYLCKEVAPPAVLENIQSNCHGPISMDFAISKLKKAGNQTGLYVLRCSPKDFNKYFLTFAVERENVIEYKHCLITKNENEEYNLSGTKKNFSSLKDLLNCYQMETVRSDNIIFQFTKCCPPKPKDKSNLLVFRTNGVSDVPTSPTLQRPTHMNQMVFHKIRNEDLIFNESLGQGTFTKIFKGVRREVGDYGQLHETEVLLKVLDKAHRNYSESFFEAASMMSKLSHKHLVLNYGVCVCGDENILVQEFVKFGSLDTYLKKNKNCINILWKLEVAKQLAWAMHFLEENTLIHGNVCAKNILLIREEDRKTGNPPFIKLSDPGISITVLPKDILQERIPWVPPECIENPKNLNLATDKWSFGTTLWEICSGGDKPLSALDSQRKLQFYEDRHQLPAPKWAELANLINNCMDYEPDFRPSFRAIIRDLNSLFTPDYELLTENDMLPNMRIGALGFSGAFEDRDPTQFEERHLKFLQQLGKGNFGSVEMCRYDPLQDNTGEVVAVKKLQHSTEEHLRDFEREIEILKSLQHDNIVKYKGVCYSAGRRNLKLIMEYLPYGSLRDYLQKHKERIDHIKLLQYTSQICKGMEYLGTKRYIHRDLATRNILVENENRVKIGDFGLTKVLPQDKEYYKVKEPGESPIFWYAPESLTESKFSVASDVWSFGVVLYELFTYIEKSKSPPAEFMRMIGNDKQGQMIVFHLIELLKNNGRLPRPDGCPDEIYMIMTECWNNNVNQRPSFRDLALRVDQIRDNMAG
experimental_details: JAK2 kinase-inhibiting activity (mobility shift, LabChip EZ Reader II)
experimental_setup: ATP 10 μM, 25° C., 80 minutes
pIC50: −log10 of the molar value.
attribute_measured: pIC50

Answered examples (8):
[Q] pIC50 lookup needed for C=CC(=O)N[C@H]1CCC[C@@H](c2ncnc3[nH]cc(-c4ccco4)c23)C1 [Comparative Example 11(a), reference compound] , thanks.
[A] 5.61

[Q] What does the data say about its pIC50? Entry: C=CC(=O)N[C@H]1CCC[C@H](c2ncnc3[nH]cc(-c4ccco4)c23)C1 [Comparative Example 11(b), reference compound]
[A] 6.06

[Q] Returns the measured pIC50 for the input compound. Input: C=CC(=O)NC1CCC=C(c2ncnc3[nH]cc(-c4ccsc4)c23)C1 (centres unmarked) [Compound 3]
[A] 6.07

[Q] May I ask what pIC50 has been recorded for C=CC(=O)N[C@H]1CCC=C(c2ncnc3[nH]cc(-c4ccco4)c23)C1 [Compound 7] ?
[A] 6.48

[Q] Item under review: C=CC(=O)NC1CCC=C(c2ncnc3[nH]cc(-c4ccccc4)c23)C1 (centres unmarked) [Compound 1] . Reported pIC50?
[A] 6.33

[Q] Tell me the measured pIC50 of C=CC(=O)NC1C=C(c2ncnc3[nH]cc(-c4ccoc4)c23)CCC1 (centres unmarked) [Compound 16] , please.
[A] 6.00

[Q] Consider the compound shown here: C=CC(=O)NC1C=C(c2ncnc3[nH]cc(-c4ccccc4)c23)CC1 (centres unmarked) [Compound 10] What is its recorded pIC50?
[A] 6.18

[Q] What value of pIC50 has been reported for the following compound? C=CC(=O)NC1C=C(c2ncnc3[nH]cc(-c4ccco4)c23)CCC1 (centres unmarked) [Compound 15]
[A] 6.35

P = C=CC(=O)NC1C=C(c2ncnc3[nH]cc(-c4cccs4)c23)CCC1 (centres unmarked) [Compound 13]
Q = C=CC(=O)NC1CC=C(c2ncnc3[nH]cc(-c4ccccc4)c23)C1 (centres unmarked) [Compound 9]
[Q] Consider entries P and Q . Which has the numerically lower pIC50? Indicate your choice by writing its label.
[A] Q
(Q: 6.06, P: 6.31)
